- System: Fibroblast
- test method notes: Multiplex assay against human fibroblast
- Format: toxicity, cell-based
- assay setup: 24 h, 10 µM, compound concentration 10 uM
Give measured Population Normal (%) for each item. Keep answers brief.
Reply with just the number (in %).

API: value(readout= Population Normal (%), system= Fibroblast, query= CN(C)Cc1cccc(NC(=C2C(=O)Nc3cc(C(=O)N(C)C)ccc32)c2ccccc2)c1 )
100

API: value(readout= Population Normal (%), system= Fibroblast, query= COc1cc(/C=C(\C#N)C(=O)Nc2nnc(C(F)(F)F)s2)ccc1OCc1ccc(C(F)(F)F)cc1C(F)(F)F )
100

API: value(readout= Population Normal (%), system= Fibroblast, query= Cc1cc(C)cc(C(=O)NOCCCCCC(=O)NO)c1 )
100

---

- Tested on: U2OS
- test method notes: Multiplex assay against U2OS
- Assay type: toxicity, cell-based
- assay setup: human, 12 h, 10 µM, compound concentration 10 uM
Give measured Population Membrane Permeable-Phenotype (%) for each item. Keep answers brief.
Reply with just the number (in %).

Find the recorded Population Membrane Permeable-Phenotype (%) belonging to CN1C[C@H](C(=O)N[C@]2(C)O[C@@]3(O)[C@@H]4CCCN4C(=O)[C@H](Cc4ccccc4)N3C2=O)C[C@@H]2c3cccc4[nH]cc(c34)C[C@H]21.CS(=O)(=O)O [DIHYDROERGOTAMINE MESYLATE] and report it.
5

Find the recorded Population Membrane Permeable-Phenotype (%) belonging to O=C(Nc1cc(-c2ccccc2)nn1-c1ccccc1F)c1ccc([N+](=O)[O-])cc1 and report it.
11

Find the recorded Population Membrane Permeable-Phenotype (%) belonging to CN(C)C(=O)Cn1cc(-c2ccc(-c3nnc4ccccn34)cc2)cn1 and report it.
4

Find the recorded Population Membrane Permeable-Phenotype (%) belonging to COc1c(Nc2ccc(S(C)(=O)=O)nc2C)ncnc1OC1CCN(C(=O)OC(C)C)CC1 and report it.
7

---

- System: U2OS
- test method notes: Multiplex assay against U2OS
- Type: toxicity, cell-based
- assay setup: human, 12 h, 10 µM, compound concentration 10 uM
readout label: Population Hoechst High Intensity Objects (%)
Reply with just the number (in %).

Find the recorded Population Hoechst High Intensity Objects (%) belonging to N#Cc1ccnc(Nc2cc(C3CCN(C4COC4)CC3)cc(N3CCC(F)(F)C3)n2)c1 and report it.
0

Find the recorded Population Hoechst High Intensity Objects (%) belonging to CC(C)CNc1nc(N2CCN(CC3CCCOC3)CC2)ncc1C(=O)NCc1ccccc1 (centres undefined) and report it.
0

Find the recorded Population Hoechst High Intensity Objects (%) belonging to CN(C)CCCn1cc(C2=C(c3c[nH]c4ccccc34)C(=O)NC2=O)c2ccccc21 and report it.
0

Find the recorded Population Hoechst High Intensity Objects (%) belonging to O=C(Nc1cc(C(F)(F)F)ccc1N1CCCCC1)c1ccncc1 and report it.
0

Find the recorded Population Hoechst High Intensity Objects (%) belonging to CN(C)C(=O)Cn1cc(-c2ccc(-c3nnc4ccccn34)cc2)cn1 and report it.
1

Find the recorded Population Hoechst High Intensity Objects (%) belonging to CN(C)Cc1cccc(NC(=C2C(=O)Nc3cc(C(=O)N(C)C)ccc32)c2ccccc2)c1 and report it.
0

Find the recorded Population Hoechst High Intensity Objects (%) belonging to CCOc1c2c(c(OCC)c3ncccc13)CN(c1ccc(CS(=O)(=O)NC(=O)Cc3ccccc3OC)cc1C)C2=O and report it.
2

Find the recorded Population Hoechst High Intensity Objects (%) belonging to Cc1cc(C)c(NC(=O)C2CC3CCC2C3)c(C)c1 (centres undefined) and report it.
0

Find the recorded Population Hoechst High Intensity Objects (%) belonging to CCOC(=O)c1cnn(-c2ccc(NC(=O)C(Cl)=C(Cl)Cl)cc2)c1C(F)(F)F and report it.
0

Find the recorded Population Hoechst High Intensity Objects (%) belonging to C[C@H](C[C@H](N)C(=O)O)C(=O)O [2S,4R-4-METHYLGLUTAMATE] and report it.
0

Find the recorded Population Hoechst High Intensity Objects (%) belonging to Cc1cc(C)cc(C(=O)NOCCCCCC(=O)NO)c1 and report it.
0

Find the recorded Population Hoechst High Intensity Objects (%) belonging to CCCCCC(O)/C=C/[C@H]1C(=O)CC(O)C1C/C=C\CCCC(=O)O (some centres undefined) and report it.
2

Find the recorded Population Hoechst High Intensity Objects (%) belonging to Nc1nccc(-c2ccn3c(N)nccc23)n1 and report it.
0

Find the recorded Population Hoechst High Intensity Objects (%) belonging to COC(=O)c1ccc2c(c1)NC(=O)/C2=C(\Nc1ccc(N(C)C(=O)CN2CCN(C)CC2)cc1)c1ccccc1 and report it.
0

Find the recorded Population Hoechst High Intensity Objects (%) belonging to COc1cc(/C=C(\C#N)C(=O)Nc2nnc(C(F)(F)F)s2)ccc1OCc1ccc(C(F)(F)F)cc1C(F)(F)F and report it.
0

Find the recorded Population Hoechst High Intensity Objects (%) belonging to Cn1ncnc1COc1nn2c(-c3cc(F)ccc3F)nnc2cc1C(C)(C)C and report it.
0

Find the recorded Population Hoechst High Intensity Objects (%) belonging to C=CC(=O)Nc1cc(Nc2nccc(-n3cc(CN(C)C)c(-c4ccccc4)n3)n2)c(OC)cc1N1CCOCC1 and report it.
0

Find the recorded Population Hoechst High Intensity Objects (%) belonging to Cc1cc(Nc2ncc(Cl)c(Nc3ccccc3S(=O)(=O)C(C)C)n2)c(OC(C)C)cc1C1CCNCC1 and report it.
0

Find the recorded Population Hoechst High Intensity Objects (%) belonging to CC(C)(O)c1cnc(N2C[C@@]3(CCC[C@](C)(Cn4cnc5ccc(C#N)cc54)C3)OC2=O)cn1 and report it.
0
